The reported measurements were obtained from patent US20200247894A1.

Biological target: T1, Human IL2Rγ extracellular domain expressed with a C-terminal myc-myc-hexahistidine tag (human)
T1 construct: also called hIL-2Rg-MMH; hIL-2RG-MMH
T1 chain: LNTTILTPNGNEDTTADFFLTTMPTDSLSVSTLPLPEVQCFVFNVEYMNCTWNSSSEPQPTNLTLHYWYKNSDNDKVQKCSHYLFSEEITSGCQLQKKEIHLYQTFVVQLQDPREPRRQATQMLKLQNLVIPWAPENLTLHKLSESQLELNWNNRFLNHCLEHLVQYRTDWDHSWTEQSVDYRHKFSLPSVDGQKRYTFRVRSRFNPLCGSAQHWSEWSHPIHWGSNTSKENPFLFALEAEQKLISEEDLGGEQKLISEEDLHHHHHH
Assay: SPR, captured mAb, 37C, dissociation pH 6.0
# Lookup of reported koff keyed by entry
// return numeric value only (unit: s⁻¹, not printed)

H4H13538P (antibody, human IgG4 S228P, kappa, V domains shown, anti-IL2Rgamma mAb expressed with human IgG4 Fc) VH: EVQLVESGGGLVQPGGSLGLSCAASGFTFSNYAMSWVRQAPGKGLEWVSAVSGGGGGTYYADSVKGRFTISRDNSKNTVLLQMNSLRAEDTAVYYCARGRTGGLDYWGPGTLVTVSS VL: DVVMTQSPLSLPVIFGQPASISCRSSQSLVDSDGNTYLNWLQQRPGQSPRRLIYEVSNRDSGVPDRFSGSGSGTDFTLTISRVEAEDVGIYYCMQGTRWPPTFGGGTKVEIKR    0.00148

Sample H4H12886P (antibody, human IgG4 S228P, kappa, V domains shown, anti-IL2Rgamma mAb expressed with human IgG4 Fc) VH: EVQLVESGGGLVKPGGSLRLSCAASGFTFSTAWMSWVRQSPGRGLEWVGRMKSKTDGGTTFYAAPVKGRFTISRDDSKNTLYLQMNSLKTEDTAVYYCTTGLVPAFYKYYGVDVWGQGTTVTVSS VL: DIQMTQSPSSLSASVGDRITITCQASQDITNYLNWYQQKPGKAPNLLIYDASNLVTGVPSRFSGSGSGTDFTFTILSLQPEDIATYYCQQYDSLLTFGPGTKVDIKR — what was its koff? 0.00216

What about this binder? H4H12889P (antibody, human IgG4 S228P, kappa, V domains shown, anti-IL2Rgamma mAb expressed with human IgG4 Fc; also called REGN7257) VH: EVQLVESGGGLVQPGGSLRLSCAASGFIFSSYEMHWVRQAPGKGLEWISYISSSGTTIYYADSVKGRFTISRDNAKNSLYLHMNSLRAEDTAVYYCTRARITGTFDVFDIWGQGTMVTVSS VL: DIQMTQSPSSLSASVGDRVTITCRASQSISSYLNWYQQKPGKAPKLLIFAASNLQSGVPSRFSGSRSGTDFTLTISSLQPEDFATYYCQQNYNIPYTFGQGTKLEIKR 0.00188

// same read-out, input: H4H12858P (antibody, human IgG4 S228P, kappa, V domains shown, anti-IL2Rgamma mAb expressed with human IgG4 Fc; also called REGN9433) VH: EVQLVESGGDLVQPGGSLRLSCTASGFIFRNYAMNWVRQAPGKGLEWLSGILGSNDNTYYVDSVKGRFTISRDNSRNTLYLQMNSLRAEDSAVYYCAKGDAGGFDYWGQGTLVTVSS VL: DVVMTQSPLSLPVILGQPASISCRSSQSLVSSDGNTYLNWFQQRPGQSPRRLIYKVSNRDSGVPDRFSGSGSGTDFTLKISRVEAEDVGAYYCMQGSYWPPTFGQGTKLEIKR 0.00172
